molecular target: VirC (Streptomyces virginiae); assay: other fluorescence titration; tryptophan fluorescence quenching; VirC, VirD, VirD mutant or VirE at 5 μM in TE buffer (20 mM Tris-HCl pH 8.5, 2 mM EDTA), 25 °C, titrated with ACP ligand (0–150 μM); excitation 295 nm; one site-specific binding model; averaged data of two independent measurements
pKd: −log10 of the molar value.
Catalogue of pKd readings, one per entry.
Measurement Type: pKd

binder="holo-ACP5a E6761A/L6764N (domain or fragment, phosphopantetheine (holo form)) GPGSAGRQEEIAEEVARLLAGVLYLEPDRLDPEATFNTLGVDSILGVEFVAAVNAAYPVGVKATALYDHPTPAAFARHIAESLGA" meas_value=5.00
binder="apo-ACP5a E6761A/L6764N (domain or fragment) GPGSAGRQEEIAEEVARLLAGVLYLEPDRLDPEATFNTLGVDSILGVEFVAAVNAAYPVGVKATALYDHPTPAAFARHIAESLGA" meas_value=4.21
binder="holo-ACP5b (domain or fragment, phosphopantetheine (Ppant) on S6871) GPGSAVAVDPAPVARALREELARTLYCEPGDIDDEASFNTLGLDSILGVEFVAFVNQTYGLDEKAGILYDHPSLAALSRHVAGRAAPV" meas_value=5.42
binder="apo-ACP5a L6764N (domain or fragment) GPGSAGRQEEIAEEVARLLAGVLYLEPDRLDPEETFNTLGVDSILGVEFVAAVNAAYPVGVKATALYDHPTPAAFARHIAESLGA" meas_value=4.05
binder="apo-ACP5a E6761A (domain or fragment) GPGSAGRQEEIAEEVARLLAGVLYLEPDRLDPEATFLTLGVDSILGVEFVAAVNAAYPVGVKATALYDHPTPAAFARHIAESLGA" meas_value=3.97
binder="apo-ACP5a (domain or fragment) GPGSAGRQEEIAEEVARLLAGVLYLEPDRLDPEETFLTLGVDSILGVEFVAAVNAAYPVGVKATALYDHPTPAAFARHIAESLGA" meas_value=3.78
binder="acetoacetyl-ACP5b (domain or fragment, acetoacetyl form (acetoacetate as substrate mimic on the phosphopantetheine)) GPGSAVAVDPAPVARALREELARTLYCEPGDIDDEASFNTLGLDSILGVEFVAFVNQTYGLDEKAGILYDHPSLAALSRHVAGRAAPV" meas_value=5.37
binder="holo-ACP5a E6761A (domain or fragment, phosphopantetheine (holo form)) GPGSAGRQEEIAEEVARLLAGVLYLEPDRLDPEATFLTLGVDSILGVEFVAAVNAAYPVGVKATALYDHPTPAAFARHIAESLGA" meas_value=5.33
binder="apo-ACP5b (domain or fragment) GPGSAVAVDPAPVARALREELARTLYCEPGDIDDEASFNTLGLDSILGVEFVAFVNQTYGLDEKAGILYDHPSLAALSRHVAGRAAPV" meas_value=4.11
binder="acetoacetyl-ACP5a (domain or fragment, acetoacetyl form (acetoacetate as substrate mimic on the phosphopantetheine)) GPGSAGRQEEIAEEVARLLAGVLYLEPDRLDPEETFLTLGVDSILGVEFVAAVNAAYPVGVKATALYDHPTPAAFARHIAESLGA" meas_value=4.40
binder="holo-ACP5a L6764N (domain or fragment, phosphopantetheine (holo form)) GPGSAGRQEEIAEEVARLLAGVLYLEPDRLDPEETFNTLGVDSILGVEFVAAVNAAYPVGVKATALYDHPTPAAFARHIAESLGA" meas_value=4.96
